Values from patent US11891365B2

Target: Full length human recombinant HDAC6 protein (Homo sapiens)
Test: In vitro histone deacetylase assay: enzymatic HDAC6 electrophoretic mobility shift assay
Conditions: 1 nM enzyme, 2 μM peptide substrate RHKK(Ac)-NH2, 25° C., 12 concentrations; read-out: Inhibitory Concentration (IC50) Values against HDAC6, Activity Range
experimental_readout: IC50

Known results for molecules:
Observed IC50 on Full length human recombinant HDAC6 protein (Homo sapiens) for O=C(NO)c1ccc2c(c1)OCCN(C(=O)C(O)(c1ccccc1)C1CCCC1)C2 (stereo not shown) , please.
> 0.5 µM

Observed IC50 on Full length human recombinant HDAC6 protein (Homo sapiens) for `COCC1(C(=O)N2Cc3ccc(C(=O)NO)cc3OC[C@@H]2C)CC1` , please.
≤ 0.1 µM

Observed IC50 on Full length human recombinant HDAC6 protein (Homo sapiens) for `C[C@H]1COc2cc(C(=O)NO)ccc2CN1C(=O)C(C)(C)CO` , please.
≤ 0.1 µM

Observed IC50 on Full length human recombinant HDAC6 protein (Homo sapiens) for `C[C@H]1COc2cc(C(=O)NO)ccc2CN1C(=O)C(C)(C)C1CCOCC1` , please.
≤ 0.1 µM

Observed IC50 on Full length human recombinant HDAC6 protein (Homo sapiens) for C[C@H]1COc2cc(C(=O)NO)ccc2CN1C(=O)CC1CCCO1 (stereo partly shown) , please.
≤ 0.1 µM

Further cases:
Observed IC50 on Full length human recombinant HDAC6 protein (Homo sapiens) for `C[C@@H]1CN(C(=O)C2(C)CCC2)Cc2ccc(C(=O)NO)cc2O1` , please.
≤ 0.1 µM

Observed IC50 on Full length human recombinant HDAC6 protein (Homo sapiens) for `CC(C)[C@@H]1c2ccc(C(=O)NO)cc2OCCN1C(=O)C1CCOCC1` , please.
> 0.5 µM

Observed IC50 on Full length human recombinant HDAC6 protein (Homo sapiens) for `C[C@@H]1c2ccc(C(=O)NO)cc2OCCN1C(=O)C1CCOCC1` , please.
> 0.5 µM

Observed IC50 on Full length human recombinant HDAC6 protein (Homo sapiens) for `C[C@H]1COc2cc(C(=O)NO)ccc2CN1C(=O)C1CCOCC1` , please.
≤ 0.1 µM

Observed IC50 on Full length human recombinant HDAC6 protein (Homo sapiens) for O=C(NO)c1ccc2c(c1)OCCN(C(=O)C(c1ccccc1)C1CCCCC1)C2 (stereo not shown) , please.
> 0.5 µM

* * *

Biological target: Full length human recombinant HDAC6 protein (Homo sapiens)
Sequence (Q9UBN7 1-1215): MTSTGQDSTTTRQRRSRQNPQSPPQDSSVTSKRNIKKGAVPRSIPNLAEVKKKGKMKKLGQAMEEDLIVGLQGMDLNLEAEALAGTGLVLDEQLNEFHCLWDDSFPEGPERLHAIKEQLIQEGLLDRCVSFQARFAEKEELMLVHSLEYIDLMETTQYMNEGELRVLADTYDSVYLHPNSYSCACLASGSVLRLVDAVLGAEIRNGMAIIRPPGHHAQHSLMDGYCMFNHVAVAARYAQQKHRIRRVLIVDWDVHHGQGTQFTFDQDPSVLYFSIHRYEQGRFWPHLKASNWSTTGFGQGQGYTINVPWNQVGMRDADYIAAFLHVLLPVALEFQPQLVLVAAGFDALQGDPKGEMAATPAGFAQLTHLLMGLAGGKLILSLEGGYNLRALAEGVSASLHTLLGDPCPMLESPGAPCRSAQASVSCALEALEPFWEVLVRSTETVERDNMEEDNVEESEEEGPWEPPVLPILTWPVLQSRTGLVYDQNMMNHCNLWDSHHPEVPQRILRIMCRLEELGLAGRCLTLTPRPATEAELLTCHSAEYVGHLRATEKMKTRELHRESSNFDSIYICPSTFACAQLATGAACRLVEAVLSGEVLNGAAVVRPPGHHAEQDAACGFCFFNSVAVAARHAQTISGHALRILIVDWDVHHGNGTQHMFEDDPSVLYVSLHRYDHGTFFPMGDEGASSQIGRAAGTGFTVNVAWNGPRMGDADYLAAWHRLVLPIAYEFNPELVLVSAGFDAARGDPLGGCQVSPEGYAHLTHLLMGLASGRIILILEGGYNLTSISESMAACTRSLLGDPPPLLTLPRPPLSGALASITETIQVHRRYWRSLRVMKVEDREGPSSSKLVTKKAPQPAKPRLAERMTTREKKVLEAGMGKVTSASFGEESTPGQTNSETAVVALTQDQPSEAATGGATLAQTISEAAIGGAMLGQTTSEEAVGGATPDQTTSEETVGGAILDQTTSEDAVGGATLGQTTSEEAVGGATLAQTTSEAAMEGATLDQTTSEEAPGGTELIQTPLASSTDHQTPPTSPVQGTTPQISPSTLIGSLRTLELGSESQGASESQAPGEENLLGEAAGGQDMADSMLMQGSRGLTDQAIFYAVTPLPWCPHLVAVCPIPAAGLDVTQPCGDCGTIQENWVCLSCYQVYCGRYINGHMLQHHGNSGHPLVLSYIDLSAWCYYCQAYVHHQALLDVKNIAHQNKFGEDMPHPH
Experiment: In vitro histone deacetylase assay: enzymatic HDAC6 electrophoretic mobility shift assay
Conditions: 1 nM enzyme, 2 μM peptide substrate RHKK(Ac)-NH2, 25° C., 12 concentrations; read-out: Inhibitory Concentration (IC50) Values against HDAC6, Activity Range
Procedure: The enzymatic HDAC6 assay was performed using electrophoretic mobility shift assay. […] The terminated assay plates were analyzed on LabChip® 3000 microfluidic electrophoresis instrument (Perkin Elmer/Caliper Life Sciences). The fluorescence intensity of the electrophoretically separated de-acetylated product and substrate peptide was measured. […] Percent inhibition (Pinh) is determined using the following equation: […]
pIC50: −log10 of the molar value.
Reported pIC50 by item:

Observed pIC50 on Full length human recombinant HDAC6 protein (Homo sapiens) for `CN(CC(=O)N1CCOc2cc(C(=O)NO)ccc2C1)S(C)(=O)=O` , please.
6.30 to 7.00

Observed pIC50 on Full length human recombinant HDAC6 protein (Homo sapiens) for `COC1(C(=O)N2CCOc3cc(C(=O)NO)ccc3C2)CC1` , please.
≥ 7.00

Observed pIC50 on Full length human recombinant HDAC6 protein (Homo sapiens) for `COC[C@H]1CN(C=O)Cc2ccc(C(=O)NO)cc2O1` , please.
≥ 7.00

Observed pIC50 on Full length human recombinant HDAC6 protein (Homo sapiens) for CC(=O)N1CCC(C(=O)N2CCOc3cc(C(=O)NO)ccc3C2)C1 (stereo not drawn) , please.
6.30 to 7.00

Observed pIC50 on Full length human recombinant HDAC6 protein (Homo sapiens) for `O=C(NO)c1ccc2c(c1)OCCN(C(=O)c1ccc3c(c1)OCO3)C2` , please.
≥ 7.00

Further cases:
Observed pIC50 on Full length human recombinant HDAC6 protein (Homo sapiens) for `O=C(NO)c1ccc2c(c1)O[C@H](c1ccccc1)CN(C(=O)C1CCOCC1)C2` , please.
6.30 to 7.00
